- assay-details: yeast display, Sf9 membrane polyspecificity reagent, FACS + sequencing; frameworks hold sequencing errors

[
  {
    "sequence-string": "QVQLVESVGGLVQAGGSLRLSCAASVFNLKSNAMGWYRQATGKERELVAAISSSGGSTYYADSVKGRFTISRDNAKNTVYLQMNSLKPEDTAVYYCNVAQYLRARRPVDYWGHGTQVTVSS",
    "polyreactivity (PSR sort gate)": "high polyreactivity"
  },
  {
    "sequence-string": "QVQLVESGGGLVQAGGSLRLSCAASGYTFGYYAMGWYRQAPGKERELVAAISWRGARTNYADSVKGRFTISRDNAKNTVYLQMNSLKPEDTAVYYCAAGYYYGYPPRDYWGQGTQVTVSS",
    "polyreactivity (PSR sort gate)": "high polyreactivity"
  },
  {
    "sequence-string": "QVQLVESGGGLVQAGGSLRLRCAASGYTLGPYAMGWYRQAPGKERELVAAISWGGGRTYYADSVKGRFTISRDNAKNTVYLQMNSLKPEDTAVYYCAAKWSHVRDGPKYDYWGQGTQVTVSS",
    "polyreactivity (PSR sort gate)": "low polyreactivity"
  },
  {
    "sequence-string": "QVQLVESGGGLVQAGGSLRLSCAASGFIFVDYDMGWYRQAPGKERELVASINWSGGSTDYADSVKGRFTISRDNAKNTVYLQMNSLKPEDTAVYYCAAEGQDGRFYWGQGTQVTVSS",
    "polyreactivity (PSR sort gate)": "low polyreactivity"
  },
  {
    "sequence-string": "QVQLVESGGGLVQAGGSLRLSCAASGSTFKYYAMGWYRQAPGKERELVASISRGGSTNYADSVKGRFTISRDNAKNTVYLQMNSLKPEDTAVYYCAKRRAGTAYDYWGQGTQVTVSS",
    "polyreactivity (PSR sort gate)": "high polyreactivity"
  },
  {
    "sequence-string": "QVQLLESGGGLVQAGGSLRLSCAASGIIFGYYAMGWYRQAPGKERELVAAITWSGGSTYYADSVKGRFTISRDNAKNTVYLQMNSLKPEDTAVYYCNADDDGRVSSTIVEYWVQGTQVTVSS",
    "polyreactivity (PSR sort gate)": "low polyreactivity"
  },
  {
    "sequence-string": "QVQLVESGGGLVQAGGSLRLSCAASPNIFHTYGMGWYRQAPWKERELVAAITSDGGTYYADSVKGRFTISRDNAKNTVYLQMNSLNPEDSAVYYCAAYTYYYAIHAYWGQGSQVTVSS",
    "polyreactivity (PSR sort gate)": "low polyreactivity"
  },
  {
    "sequence-string": "QVQLVESGGGLVQAGGSLRLSCAASGRIFTRYAMGWYRQAPGKERELVATISGSGSTNYADSVKGRFTISRDNAKNTVYLQMNSLKPEDTAVYYCNRRSRREYDYWGQGTQVTVSS",
    "polyreactivity (PSR sort gate)": "low polyreactivity"
  },
  {
    "sequence-string": "QVQLVESGGGLVQAGGSLRLTCAASGRIFTRYAMGWYRQAPGKERELVAAISYGGGGTYYADSVKGRFTISRDNAKNTVYLQMNSLKPEVTSVYYCAADPGYYSWGSSQDDYWGQGTQVTVSS",
    "polyreactivity (PSR sort gate)": "low polyreactivity"
  },
  {
    "sequence-string": "QVQLVESGGGLVQAGGSLRLSCAASGFTFYTYAMGWYRQAPGKERELVADISSGGSTNYADPVKGRFTISRDNAKNTVDLQMNCLKPEDTAVYYCSADYYFLDWYDYWGQGTQVTVSS",
    "polyreactivity (PSR sort gate)": "low polyreactivity"
  },
  {
    "sequence-string": "QVQLVESGGGLVQAGGSLRLSCAASGRSILLNAMGWYRHAPGKERELVAAISRGGSTYYADSVKGRFTISRDNAKYSVYLQMNSLKPEDTAVYYCAARFWISHTHWDAGDYWGQGTQVTVSS",
    "polyreactivity (PSR sort gate)": "low polyreactivity"
  }
]
